experiment: Acute toxicity in mice; settings: mouse, in vivo, ip
measure: LD50 at 168 h (mg/kg)

INSERT INTO results (compound, measure, unit, measured_result) VALUES
  ('CCOC(=O)C(C)(C)Oc1ccc(Cl)cc1 [Clofibrate, reference compound]', 'LD50 at 168 h', 'mg/kg', 1620);

----------
The following compounds are listed with their measured LD50 at 168 h values.
assay: Acute toxicity in rats; settings: in vivo; rat, oral administration, after one week; read-out: Acute Toxicity (LD50), C
measure: LD50 at 168 h

INSERT INTO results (smiles_data, measured_result) VALUES
  ('Cc1ccc(CSC(=O)N[C@@H](Cc2ccccc2)C(N)=O)cc1', '> 100 mg/kg'),
  ('O=C(N[C@@H](Cc1ccccc1)C(=O)O)SCc1ccccc1', '> 200 mg/kg'),
  ('COC(=O)[C@H](Cc1ccccc1)NC(=O)SCc1c(C)c(C)c(C)c(C)c1C', '> 100 mg/kg'),
  ('Cc1c(C)c(C)c(CSC(=O)N[C@@H](Cc2ccccc2)C(=O)O)c(C)c1C', '> 100 mg/kg');

----------
tested on: Cholesterol in the serum; assay: Cholesterol-lowering activity on normal rats of Wistar strain (serum cholesterol, liver weight); type: in vivo, rats (male Wistar strain); details: continuous administration for 14 days, 0.3% in diet
// classify: if (D - Ratio of increase of liver weight < 30%) fulfilled else not fulfilled

INSERT INTO results (molecule, label) VALUES
  ('CCOC(=O)C(C)(C)Oc1ccc(Cl)cc1 [Clofibrate, reference compound]', 'not fulfilled'),
  ('COC(=O)[C@H](Cc1ccccc1)NC(=O)SCc1ccccc1 [Compound 18]', 'not fulfilled'),
  ('O=C(N[C@@H](Cc1ccccc1)C(=O)O)SCc1ccccc1 [Compound 16, N-benzylthiocarbonyl-L-phenylalanine]', 'not fulfilled'),
  ('COC(=O)[C@H](Cc1ccccc1)NC(=O)SCc1ccc(C)cc1 [Compound 2]', 'fulfilled'),
  ('Cc1ccc(CSC(=O)N[C@@H](Cc2ccccc2)C(=O)O)cc1 [Compound 1]', 'not fulfilled');

----------
assay: Acute toxicity in rats; conditions: in vivo; rat, oral administration, after one week; read-out: Acute Toxicity (LD50), C
measure: LD50 at 168 h

INSERT INTO measurements (smiles_data, measured_result) VALUES
  ('O=C(N[C@@H](Cc1ccccc1)C(=O)O)SCc1ccc(Cl)cc1', '> 100 mg/kg'),
  ('COC(=O)[C@H](Cc1ccccc1)NC(=O)[C@H](Cc1ccccc1)NC(=O)SCc1ccc(C)cc1', '> 100 mg/kg'),
  ('Cc1ccc(CSC(=O)N[C@@H](Cc2ccccc2)C(=O)O)cc1', '> 200 mg/kg'),
  ('COC(=O)[C@H](Cc1ccccc1)NC(=O)SCc1ccccc1', '> 200 mg/kg'),
  ('COC(=O)[C@H](Cc1ccccc1)NC(=O)SCc1cccc2ccccc12', '> 100 mg/kg');

----------
Assay: Acute toxicity in mice
Conditions: in vivo; mouse, oral administration, after one week; read-out: Acute Toxicity (LD50), A
Experimental: (1) Acute toxicity and tonic convulsion in hind paw: The acute toxicity and tonic convulsion occured by stimulus by hand touch were determined in the following manner to give the results shown in Table 2. (a) Acute toxicity in mice: 38 Groups, each consisting of 5 mice (male dd-strain, weight -- 18 to 24 g), were used for the test and control groups. The compounds shown in Table 2 were administered orally or intraperitoneally to the mice. After one week, the survival ratio was measured.
We begin with a simple list: items and their reported LD50 at 168 h.
measure: LD50 at 168 h

INSERT INTO results (smiles_data, measured_result) VALUES
  ('Cc1ccccc1CSC(=O)N[C@@H](Cc1ccccc1)C(=O)O', '> 1000 mg/kg'),
  ('Cc1ccc(CSC(=O)N[C@@H](Cc2ccccc2)C(N)=O)cc1', '> 1000 mg/kg'),
  ('COC(=O)[C@H](Cc1ccccc1)NC(=O)SCc1ccc([N+](=O)[O-])cc1', '> 1000 mg/kg'),
  ('NC(=O)[C@H](Cc1ccccc1)NC(=O)SCc1ccc(Cl)cc1', '> 1000 mg/kg'),
  ('COC(=O)[C@H](Cc1ccccc1)NC(=O)SCc1ccc(Cl)cc1', '> 4000 mg/kg'),
  ('COC(=O)[C@H](Cc1ccccc1)NC(=O)SCc1c(C)cccc1C', '> 1000 mg/kg'),
  ('COC(=O)[C@H](Cc1ccccc1)NC(=O)SCc1ccc(O)cc1', '> 1000 mg/kg'),
  ('COC(=O)[C@H](Cc1ccccc1)NC(=O)SCc1cc(C)ccc1C', '> 1000 mg/kg'),
  ('COC(=O)[C@H](Cc1ccccc1)NC(=O)[C@H](Cc1ccccc1)NC(=O)SCc1ccc(Cl)cc1', '> 300 mg/kg');

----------
assay: Acute toxicity in mice; settings: in vivo; mouse, oral administration, after one week; read-out: Acute Toxicity (LD50), A
# key: entry, value: LD50 at 168 h
measure: LD50 at 168 h

INSERT INTO results (compound, measured_result) VALUES
  ('COC(=O)[C@H](Cc1ccccc1)NC(=O)SCc1cccc2ccccc12 [Compound 32]', '> 1000 mg/kg'),
  ('COC(=O)[C@H](Cc1ccccc1)NC(=O)SCc1ccccc1C [Compound 21]', '> 1000 mg/kg'),
  ('O=C(NC(Cc1ccccc1)C(=O)O)SCc1ccccc1 (racemic) [Compound 17, N-benzylthiocarbonyl-D,L-phenylalanine]', '> 1000 mg/kg'),
  ('CCOC(=O)[C@H](Cc1ccccc1)NC(=O)SCc1ccc(C)cc1 [Compound 3]', '> 1000 mg/kg'),
  ('Cc1ccc(CSC(=O)N[C@@H](Cc2ccccc2)C(=O)O)cc1 [Compound 1]', '> 4000 mg/kg'),
  ('COC(=O)C(Cc1ccccc1)NC(=O)SCc1ccccc1 (racemic) [Compound 19]', '> 1000 mg/kg'),
  ('Cc1ccc(CSC(=O)NC(Cc2ccccc2)C(=O)O)cc1 (racemic) [Compound 35]', '> 1000 mg/kg'),
  ('CCNC(=O)[C@H](Cc1ccccc1)NC(=O)SCc1ccc(Cl)cc1 [Compound 10]', '> 300 mg/kg');

----------
tested on: Cholesterol in the serum; experiment: Cholesterol-lowering activity on normal rats of Wistar strain (serum cholesterol, liver weight); format: in vivo, rats (male Wistar strain); details: continuous administration for 4 days, 0.3% in diet
Entries are sorted into classes by B - Ratio of decrease of liver weight as follows: low: < 10%; intermediate: ≥ 10% and < 40%; high: ≥ 40%

INSERT INTO assay_data (molecule, label) VALUES
  ('COC(=O)C(Cc1ccccc1)NC(=O)SCc1ccccc1 (racemic)', 'intermediate'),
  ('COC(=O)[C@H](Cc1ccccc1)NC(=O)SCc1cc(C)ccc1C', 'low'),
  ('COC(=O)[C@H](Cc1ccccc1)NC(=O)SCc1c(C)c(C)c(C)c(C)c1C', 'intermediate'),
  ('COC(=O)[C@H](Cc1ccccc1)NC(=O)SCc1cccc2ccccc12', 'intermediate'),
  ('Cc1ccc(CSC(=O)N[C@@H](Cc2ccccc2)C(N)=O)cc1', 'low'),
  ('COC(=O)[C@H](Cc1ccccc1)NC(=O)SCc1c(C)cccc1C', 'high'),
  ('O=C(NC(Cc1ccccc1)C(=O)O)SCc1ccccc1 (racemic)', 'intermediate'),
  ('Cc1ccc(CSC(=O)N[C@@H](Cc2ccccc2)C(=O)O)cc1', 'intermediate'),
  ('Cc1cccc(C)c1CSC(=O)N[C@@H](Cc1ccccc1)C(=O)O', 'intermediate'),
  ('CC(C)(C)c1ccc(CSC(=O)N[C@@H](Cc2ccccc2)C(=O)O)cc1', 'intermediate'),
  ('COC(=O)[C@H](Cc1ccccc1)NC(=O)SCc1ccc(F)cc1', 'high'),
  ('NC(=O)[C@H](Cc1ccccc1)NC(=O)SCc1ccc(Cl)cc1', 'high'),
  ('O=C(N[C@@H](Cc1ccccc1)C(=O)O)SCc1cccc2ccccc12', 'intermediate'),
  ('COC(=O)[C@H](Cc1ccccc1)NC(=O)SCc1ccc(OC)cc1', 'intermediate'),
  ('O=C(N[C@@H](Cc1ccccc1)C(=O)O)SCc1ccc([N+](=O)[O-])cc1', 'high'),
  ('COC(=O)[C@H](Cc1ccccc1)NC(=O)SCc1ccc(C)cc1', 'low'),
  ('Cc1ccc(C)c(CSC(=O)N[C@@H](Cc2ccccc2)C(=O)O)c1', 'low');

----------
test: Acute toxicity in mice; conditions: in vivo; mouse, oral administration, after one week; read-out: Acute Toxicity (LD50), A
Listed here: items and their measured LD50 at 168 h.
measure: LD50 at 168 h

INSERT INTO assay_data (smiles_data, measured_result) VALUES
  ('Cc1c(C)c(C)c(CSC(=O)N[C@@H](Cc2ccccc2)C(=O)O)c(C)c1C', '> 1000 mg/kg'),
  ('COC(=O)[C@H](Cc1ccccc1)NC(=O)SCc1ccc(C)cc1', '> 4000 mg/kg'),
  ('O=C(N[C@@H](Cc1ccccc1)C(=O)O)SCc1ccc([N+](=O)[O-])cc1', '> 1000 mg/kg'),
  ('COC(=O)[C@H](Cc1ccccc1)NC(=O)SCc1ccc(F)cc1', '> 1000 mg/kg'),
  ('COC(=O)[C@H](Cc1ccccc1)NC(=O)SCc1ccc(OC)cc1', '> 1000 mg/kg'),
  ('O=C(N[C@@H](Cc1ccccc1)C(=O)O)SCc1ccc(Cl)cc1', '> 300 mg/kg'),
  ('COC(=O)[C@H](Cc1ccccc1)NC(=O)SCc1c(C)c(C)c(C)c(C)c1C', '> 1000 mg/kg'),
  ('CC(C)(C)c1ccc(CSC(=O)N[C@@H](Cc2ccccc2)C(=O)O)cc1', '> 1000 mg/kg'),
  ('CC(=O)Oc1ccc(CSC(=O)N[C@@H](Cc2ccccc2)C(=O)O)cc1', '> 1000 mg/kg'),
  ('Cc1ccc(CSC(=O)N[C@H](Cc2ccccc2)C(=O)O)cc1', '> 1000 mg/kg'),
  ('COC(=O)[C@H](Cc1ccccc1)NC(=O)[C@H](Cc1ccccc1)NC(=O)SCc1ccc(C)cc1', '> 300 mg/kg');
